- Tested on: TRZAWR (Wheat, Winter, cv Riband)
- Assay Info: Postemergence herbicidal evaluation
- Format: in vivo, Triticum aestivum
- Measurement Setup: postemergence, rate 0.0315 kg/ha
Endpoint Name: TRZAWR herbicidal rating
Please reply with the number alone, leaving off any unit.

Consider the reported TRZAWR herbicidal rating for these compounds:
CN1C(=O)C(CC(N)=O)SC1=Nc1cc(-n2c(=O)cc(C(F)(F)F)n(C)c2=O)c(F)cc1Cl (stereo not shown) :: 6.0
COC(=O)C1(N2C(=O)CSC2=Nc2cc(-n3c(=O)cc(C(F)(F)F)n(C)c3=O)c(F)cc2Cl)CCCCC1 :: 5.0
C=CCN1C(=O)C(CC(=O)OC(C)C(=O)OCC)SC1=Nc1cc(-n2c(=O)ccn(C)c2=O)c(F)cc1Cl (stereo not shown) :: 9.0

Enquiry: For Cn1c(C(F)(F)F)cc(=O)n(-c2cc(N=C3SCC(=O)N3C3CCOC3=O)c(Cl)cc2F)c1=O (stereo not shown) , what is its reported TRZAWR herbicidal rating?
Return: 4.0

* * *

- System: GALAP (Galium)
- Assay Info: Preemergence herbicidal evaluation
- Type: in vivo, Galium aparine
- Measurement Setup: rate 0.2500 kg/ha; rated 4-5 weeks after treatment; rating scale 0-9
Endpoint Name: Preemergence herbicidal rating GALAP
Reply: number alone, nothing else.

Cn1c(C(F)(F)F)cc(=O)n(-c2cc(N=C3SCC(=O)N3Cc3cccc(C(F)(F)F)c3)c(Cl)cc2F)c1=O :: 9.0

Enquiry: I'd like to know its Preemergence herbicidal rating GALAP. The compound in question is Cn1c(C(F)(F)F)cc(=O)n(-c2cc(N=C3SCC(=O)N3C3CC3)c(Cl)cc2F)c1=O
Return: 6.0

Enquiry: Item Cn1c(C(F)(F)F)cc(=O)n(-c2cc(N=C3SCC(=O)N3Cc3ccc(S(N)(=O)=O)cc3)c(Cl)cc2F)c1=O has what recorded Preemergence herbicidal rating GALAP?
Return: 1.0

Enquiry: Query: Preemergence herbicidal rating GALAP; subject: CSCCN1C(=O)CSC1=Nc1cc(-n2c(=O)cc(C(F)(F)F)n(C)c2=O)c(F)cc1Cl
Return: 4.0

* * *

- System: GLXMAW (Soybean, Williams)
- Assay Info: Preemergence herbicidal evaluation
- Assay type: in vivo, Glycine max, (L.) Merr. cv Williams
- Measurement Setup: rate 0.0625 kg/ha; rated 4-5 weeks after treatment
- Excerpt: Results of herbicide evaluation are expressed on a rating scale (0-9). The scale is based upon a visual observation of plant stand, vigor, malformation, size, chlorosis and overall plant appearance as compared with a control. […] The compounds evaluated are reported by compound number given in Example 37.
The entries below are paired with their reported Preemergence herbicidal rating GLXMAW.
Lab note: record the figure alone, no unit after it.

# annotated cases, reported Preemergence herbicidal rating GLXMAW shown
CCOC(=O)CN1C(=O)C(Cc2ccccc2OC(C)C(=O)OC)SC1=Nc1cc(-n2c(=O)cc(C(F)(F)F)n(C)c2=O)c(F)cc1Cl (centres unmarked) :: 0.0
CCOC(=O)CN1C(=O)C(SC)SC1=Nc1cc(-n2c(=O)cc(C(F)(F)F)n(C)c2=O)c(F)cc1Cl (centres unmarked) :: 0.0

Enquiry: Look up Preemergence herbicidal rating GLXMAW for this compound: Cn1c(C(F)(F)F)cc(=O)n(-c2cc(N=C3SCC(=O)N3CC(=O)OCC#N)c(Cl)cc2F)c1=O
Return: 5.0

Enquiry: # get_value(readout='Preemergence herbicidal rating GLXMAW', item= CCOC(=O)COc1ccccc1CC1S/C(=N/c2cc(-n3c(=O)cc(C(F)(F)F)n(C)c3=O)c(F)cc2Cl)N(CC(=O)OCC)C1=O (centres unmarked) )
Return: 0.0

Enquiry: Query (compound): Cn1c(C(F)(F)F)cc(=O)n(-c2cc(N=C3SCC(=O)N3CCC(=O)O)c(Cl)cc2F)c1=O ; field requested: Preemergence herbicidal rating GLXMAW
Return: 3.0

Enquiry: Please report the recorded Preemergence herbicidal rating GLXMAW for COC(=O)[C@H](Cc1ccc([N+](=O)[O-])cc1)N1C(=O)CSC1=Nc1cc(-n2c(=O)cc(C(F)(F)F)n(C)c2=O)c(F)cc1Cl .
Return: 0.0

Enquiry: Quick one: Preemergence herbicidal rating GLXMAW for CCOC(=O)CN1C(=O)C(C(=O)OCC)SC1=Nc1cc(-n2c(=O)cc(C(F)(F)F)n(C)c2=O)c(F)cc1Cl (centres unmarked) ?
Return: 0.0

Enquiry: Name the reported Preemergence herbicidal rating GLXMAW value associated with the compound Cn1c(C(F)(F)F)cc(=O)n(-c2cc(N=C3SCC(=O)N3C3CCOC3=O)c(Cl)cc2F)c1=O (centres unmarked)
Return: 1.0

Enquiry: What value of Preemergence herbicidal rating GLXMAW has been reported for the following compound? CCOC(=O)CN1C(=O)C(CC(=O)O)SC1=Nc1cc(-n2nc(C)n(C(F)F)c2=O)c(F)cc1Cl (centres unmarked)
Return: 1.0

Enquiry: I'd like to know its Preemergence herbicidal rating GLXMAW. The compound in question is CCCCOC(=O)CN1C(=O)CSC1=Nc1cc(-n2c(=O)cc(C(F)(F)F)n(C)c2=O)c(F)cc1Cl
Return: 1.0

Enquiry: Sample CCOC(=O)CN1C(=O)C(Cc2ccccc2OC(C)C(=O)O)S/C1=N/c1cc(-n2c(=O)cc(C(F)(F)F)n(C)c2=O)c(F)cc1Cl (centres unmarked) — what was its Preemergence herbicidal rating GLXMAW?
Return: 0.0
